Experiment: Biodistribution of 67Ga-radiolabeled peptides
Parameters: species or system mouse
Details: female, CD1, mouse, in vivo, iv, 100 uCi, total radioactivity, Tissue distribution, Stomach
Residues, ends and D or L forms follow the SMILES beside them. *: point of attachment. NODAGA = O=C(O)CN1CCN(CC(=O)O)CCN(C(CCC(=O)*)C(=O)O)CC1
value.kind: tissue uptake at 2 min (%ID/g)
Give the quantity in %ID/g, number only.

Incoming: Entry under review: CC[C@H](C)[C@H](NC(=O)[C@H](Cc1c[nH]cn1)NC(=O)CCC(C(=O)O)N1CCN(CC(=O)O)CCN(CC(=O)O)CC1)C(=O)N[C@@H](CCC(N)=O)C(=O)N[C@@H](CC(C)C)C(=O)N[C@@H](CO)C(=O)N1CCC[C@H]1C(=O)N[C@@H](Cc1ccccc1)C(=O)N[C@@H](CO)C(=O)N[C@@H](CCC(N)=O)C(=O)N[C@@H](CO)C(=O)N[C@@H](Cc1c[nH]c2ccccc12)C(=O)N[C@@H](CCCNC(=N)N)C(N)=O (stereo partly shown) [67Ga-BBBpS_5, metal not drawn] ({NODAGA}-HIQLSPFSQSWR-NH2) . Reported tissue uptake at 2 min?
Outgoing: 2.6

Incoming: Next record, please: CC[C@H](C)[C@H](NC(=O)[C@H](C)NC(=O)CNC(=O)[C@H](CCCCN)NC(=O)[C@H](Cc1ccc(O)cc1)NC(=O)[C@H](CCCCN)NC(=O)CCC(C(=O)O)N1CCN(CC(=O)O)CCN(CC(=O)O)CC1)C(=O)N[C@H](C(=O)NCC(=O)N[C@@H](CC(N)=O)C(=O)N[C@H](C(=O)N[C@@H](CCCCN)C(N)=O)[C@@H](C)CC)[C@@H](C)CC (stereo partly shown) [67Ga-BBBpS_1, metal not drawn] ({NODAGA}-KYKGAIIGNIK-NH2)
Outgoing: 1.4

Incoming: Queued: CC[C@H](C)[C@H](NC(=O)[C@H](C)NC(=O)CNC(=O)[C@H](CO)NC(=O)[C@H](CCCNC(=N)N)NC(=O)[C@H](Cc1ccc(O)cc1)NC(=O)[C@H](CCCCN)NC(=O)CCC(C(=O)O)N1CCN(CC(=O)O)CCN(CC(=O)O)CC1)C(=O)N[C@H](C(=O)N[C@H](C(=O)NCC(=O)N[C@@H](Cc1ccc(O)cc1)C(N)=O)[C@@H](C)CC)[C@@H](C)O (stereo partly shown) [67Ga-BBBpS_2, metal not drawn] ({NODAGA}-KYRSGAITIGY-NH2)
Outgoing: 1

Incoming: And then CC(C)C[C@H](NC(=O)[C@H](Cc1c[nH]c2ccccc12)NC(=O)[C@H](Cc1ccccc1)NC(=O)[C@H](CCC(N)=O)NC(=O)[C@H](C)NC(=O)[C@H](CO)NC(=O)[C@H](CC(=O)O)NC(=O)[C@@H]1CCCN1C(=O)[C@H](CCCNC(=N)N)NC(=O)[C@H](CC(N)=O)NC(=O)CCC(C(=O)O)N1CCN(CC(=O)O)CCN(CC(=O)O)CC1)C(=O)N[C@@H](Cc1c[nH]cn1)C(=O)N[C@@H](Cc1c[nH]cn1)C(N)=O (stereo partly shown) [67Ga-BBBpS_9, metal not drawn] ({NODAGA}-NRPDSAQFWLHH-NH2) , what is it?
Outgoing: 1.5

* * *

Assay: Cytotoxicity, CellTiter-Blue cell viability assay
Assay type: cell-based
Conditions: human
value.kind: IC50 at 24 h

Incoming: Can you look up the measured IC50 at 24 h of CSCC[C@H](NC(=O)[C@H](CC(C)C)NC(=O)CNC(=O)[C@H](Cc1ccccc1)NC(=O)[C@H](Cc1ccccc1)NC(=O)[C@H](CCC(N)=O)NC(=O)[C@H](CCC(N)=O)NC(=O)[C@@H]1CCCN1C(=O)[C@H](CCCCN)NC(=O)[C@@H]1CCCN1C(=O)[C@@H](N)CCCN=C(N)N)C(N)=O [BBBpS_10] for me?
Outgoing: > 100 µM

* * *

Consider the following compounds; for each one, report its tissue uptake at 1 h.
Assay: Biodistribution of 67Ga-radiolabeled peptides
Design: species or system mouse
Conditions: female, CD1, mouse, in vivo, iv, 100 uCi, total radioactivity, Tissue distribution, Stomach
Residues, ends and D or L forms follow the SMILES beside them. *: point of attachment. NODAGA = O=C(O)CN1CCN(CC(=O)O)CCN(C(CCC(=O)*)C(=O)O)CC1
Write the answer as a number in %ID/g, unit excluded.

Incoming: Which measured tissue uptake at 1 h value corresponds to CC[C@H](C)[C@H](NC(=O)[C@H](C)NC(=O)CNC(=O)[C@H](CO)NC(=O)[C@H](CCCNC(=N)N)NC(=O)[C@H](Cc1ccc(O)cc1)NC(=O)[C@H](CCCCN)NC(=O)CCC(C(=O)O)N1CCN(CC(=O)O)CCN(CC(=O)O)CC1)C(=O)N[C@H](C(=O)N[C@H](C(=O)NCC(=O)N[C@@H](Cc1ccc(O)cc1)C(N)=O)[C@@H](C)CC)[C@@H](C)O (stereo partly drawn) [67Ga-BBBpS_2, metal not drawn] ({NODAGA}-KYRSGAITIGY-NH2) ?
Outgoing: 0.2

Incoming: Next: CC[C@H](C)[C@H](NC(=O)[C@H](Cc1c[nH]cn1)NC(=O)CCC(C(=O)O)N1CCN(CC(=O)O)CCN(CC(=O)O)CC1)C(=O)N[C@@H](CCC(N)=O)C(=O)N[C@@H](CC(C)C)C(=O)N[C@@H](CO)C(=O)N1CCC[C@H]1C(=O)N[C@@H](Cc1ccccc1)C(=O)N[C@@H](CO)C(=O)N[C@@H](CCC(N)=O)C(=O)N[C@@H](CO)C(=O)N[C@@H](Cc1c[nH]c2ccccc12)C(=O)N[C@@H](CCCNC(=N)N)C(N)=O (stereo partly drawn) [67Ga-BBBpS_5, metal not drawn] ({NODAGA}-HIQLSPFSQSWR-NH2)
Outgoing: 0.3

Incoming: Same question, CC(C)C[C@H](NC(=O)[C@H](Cc1c[nH]c2ccccc12)NC(=O)[C@H](Cc1ccccc1)NC(=O)[C@H](CCC(N)=O)NC(=O)[C@H](C)NC(=O)[C@H](CO)NC(=O)[C@H](CC(=O)O)NC(=O)[C@@H]1CCCN1C(=O)[C@H](CCCNC(=N)N)NC(=O)[C@H](CC(N)=O)NC(=O)CCC(C(=O)O)N1CCN(CC(=O)O)CCN(CC(=O)O)CC1)C(=O)N[C@@H](Cc1c[nH]cn1)C(=O)N[C@@H](Cc1c[nH]cn1)C(N)=O (stereo partly drawn) [67Ga-BBBpS_9, metal not drawn] ({NODAGA}-NRPDSAQFWLHH-NH2) this time
Outgoing: 0.3

* * *

Experiment: Cytotoxicity, CellTiter-Blue cell viability assay
Assay type: cell-based
Details: human
value.kind: IC50 at 24 h

Incoming: # query: IC50 at 24 h of entry CSCC[C@H](NC(=O)[C@H](CC(C)C)NC(=O)CNC(=O)[C@H](Cc1ccccc1)NC(=O)[C@H](Cc1ccccc1)NC(=O)[C@H](CCC(N)=O)NC(=O)[C@H](CCC(N)=O)NC(=O)[C@@H]1CCCN1C(=O)[C@H](CCCCN)NC(=O)[C@@H]1CCCN1C(=O)[C@@H](N)CCCN=C(N)N)C(N)=O
Outgoing: > 100 µM

* * *

Provide the recorded tissue uptake at 1 h for the entries that follow.
Test: Biodistribution of 67Ga-radiolabeled peptides
Parameters: species or system mouse
Conditions: female, CD1, mouse, in vivo, iv, 100 uCi, total radioactivity, Tissue distribution, Muscle
Residues, ends and D or L forms follow the SMILES beside them. *: point of attachment. NODAGA = O=C(O)CN1CCN(CC(=O)O)CCN(C(CCC(=O)*)C(=O)O)CC1
In your response, the unit should come after the numeric value.

Incoming: Entry under review: CC[C@H](C)[C@H](NC(=O)[C@H](C)NC(=O)CNC(=O)[C@H](CCCCN)NC(=O)[C@H](Cc1ccc(O)cc1)NC(=O)[C@H](CCCCN)NC(=O)CCC(C(=O)O)N1CCN(CC(=O)O)CCN(CC(=O)O)CC1)C(=O)N[C@H](C(=O)NCC(=O)N[C@@H](CC(N)=O)C(=O)N[C@H](C(=O)N[C@@H](CCCCN)C(N)=O)[C@@H](C)CC)[C@@H](C)CC (stereo partly shown) [67Ga-BBBpS_1, metal not drawn] ({NODAGA}-KYKGAIIGNIK-NH2) . Reported tissue uptake at 1 h?
Outgoing: 0.3 %ID/g

Incoming: CC(C)C[C@H](NC(=O)[C@H](Cc1c[nH]c2ccccc12)NC(=O)[C@H](Cc1ccccc1)NC(=O)[C@H](CCC(N)=O)NC(=O)[C@H](C)NC(=O)[C@H](CO)NC(=O)[C@H](CC(=O)O)NC(=O)[C@@H]1CCCN1C(=O)[C@H](CCCNC(=N)N)NC(=O)[C@H](CC(N)=O)NC(=O)CCC(C(=O)O)N1CCN(CC(=O)O)CCN(CC(=O)O)CC1)C(=O)N[C@@H](Cc1c[nH]cn1)C(=O)N[C@@H](Cc1c[nH]cn1)C(N)=O (stereo partly shown) [67Ga-BBBpS_9, metal not drawn] ({NODAGA}-NRPDSAQFWLHH-NH2) ?
Outgoing: 0.2 %ID/g

Incoming: Also CC[C@H](C)[C@H](NC(=O)[C@H](C)NC(=O)CNC(=O)[C@H](CO)NC(=O)[C@H](CCCNC(=N)N)NC(=O)[C@H](Cc1ccc(O)cc1)NC(=O)[C@H](CCCCN)NC(=O)CCC(C(=O)O)N1CCN(CC(=O)O)CCN(CC(=O)O)CC1)C(=O)N[C@H](C(=O)N[C@H](C(=O)NCC(=O)N[C@@H](Cc1ccc(O)cc1)C(N)=O)[C@@H](C)CC)[C@@H](C)O (stereo partly shown) [67Ga-BBBpS_2, metal not drawn] ({NODAGA}-KYRSGAITIGY-NH2) , if possible.
Outgoing: 0.7 %ID/g

Incoming: Thanks! And CC[C@H](C)[C@H](NC(=O)[C@H](Cc1c[nH]cn1)NC(=O)CCC(C(=O)O)N1CCN(CC(=O)O)CCN(CC(=O)O)CC1)C(=O)N[C@@H](CCC(N)=O)C(=O)N[C@@H](CC(C)C)C(=O)N[C@@H](CO)C(=O)N1CCC[C@H]1C(=O)N[C@@H](Cc1ccccc1)C(=O)N[C@@H](CO)C(=O)N[C@@H](CCC(N)=O)C(=O)N[C@@H](CO)C(=O)N[C@@H](Cc1c[nH]c2ccccc12)C(=O)N[C@@H](CCCNC(=N)N)C(N)=O (stereo partly shown) [67Ga-BBBpS_5, metal not drawn] ({NODAGA}-HIQLSPFSQSWR-NH2) ?
Outgoing: 0.5 %ID/g
